These measurements were taken from ChEMBL document CHEMBL4017453.

assay: Oral bioavailability in CD-1 mouse at 10 mg/kg; format: ADME, organism-based; settings: in vivo
Measured quantity: bioavailability (%)
Give bare numbers, in %.

Chemical structure: Cc1ccc(NC(=O)c2ccc(CN3CCN(C)CC3)c(C(F)(F)F)c2)cc1NC(=O)c1cccc(-c2cnn(C)c2)c1
Unit info: %
bioavailability: 11

Could you now consider this next compound?
Asked: Identify bioavailability associated with the compound "Cc1ccc(NC(=O)c2cccc(C(F)(F)F)c2)cc1NC(=O)c1cncc(-c2cnn(C)c2)c1"
Given back: 64

###

experiment: Terminal half life in CD-1 mouse at 10 mg/kg, po; format: ADME, organism-based; settings: in vivo, read-out: beta t1/2 (converted)
Would you mind telling me the reported half-life of each entry?
Give bare numbers, in min.

Chemical structure: Cc1ccc(NC(=O)c2cccc(C(F)(F)F)c2)cc1NC(=O)c1cncc(-c2cnn(C)c2)c1
Measured quantity: half-life
Recorded number: 108

Asked: Item "Cc1ccc(NC(=O)c2ccc(CN3CCN(C)CC3)c(C(F)(F)F)c2)cc1NC(=O)c1cccc(-c2cnn(C)c2)c1" : provide half-life
Given back: 79.2

###

Reported pIC50 values, Mast/stem cell growth factor receptor Kit (Homo sapiens).
One number for each entry, as −log10 of the molar value.

// below: answered compounds
Chemical structure: Cc1ncc(NC(=O)c2cccc(C(F)(F)F)c2)cc1NC(=O)c1cncc(-c2cnn(C)c2)c1
pIC50: 6.74
--
Chemical structure: Cc1ccc(C(=O)Nc2ccc(CN3CCN(C)CC3)c(C(F)(F)F)c2)cc1NC(=O)c1cccc(-c2cccnc2)c1
pIC50: 6.68
--
Chemical structure: Cc1ccc(CNc2ccc(CN3CCN(C)CC3)c(C(F)(F)F)c2)cc1NC(=O)c1cccc(-c2cccs2)c1
pIC50: 6.57
--
Chemical structure: Cc1ccc(NC(=O)c2ccc(CN3CCN(C)CC3)c(C(F)(F)F)c2)cc1NC(=O)c1cccc(-c2cnn(C)c2)c1
pIC50: 6.13

--- query ---
Asked: Return pIC50 (reported value) for this compound: "CN1CCN(Cc2ccc(NC(=O)c3ccc(Cl)c(NC(=O)c4cccc(-c5cccs5)c4)c3)cc2C(F)(F)F)CC1"
Given back: 6.72

###

experiment: Stability in mouse liver microsomes assessed as compound remaining at 1 uM after 30 mins in presence of NADPH by LC/MS/MS analysis; assay type: ADME, microsome; conditions: read-out: Stability
Measured quantity: remaining at 0.5 h, 1 µM (%)
Answers are plain numbers, in %.

Here are 5 compounds together with their reported answers.
Chemical structure: Cc1ccc(NC(=O)c2cccc(C(F)(F)F)c2)cc1NC(=O)c1cccc(-c2cnn(C)c2)c1
Measured quantity: remaining at 0.5 h, 1 µM
Recorded number: 74
--
Chemical structure: Cc1ncc(NC(=O)c2cccc(C(F)(F)F)c2)cc1NC(=O)c1cncc(-c2cnn(C)c2)c1
Measured quantity: remaining at 0.5 h, 1 µM
Recorded number: 57
--
Chemical structure: Cc1ccc(NC(=O)c2cccc(C(F)(F)F)c2)cc1NC(=O)c1cncc(-c2cnn(C)c2)c1
Measured quantity: remaining at 0.5 h, 1 µM
Recorded number: 63
--
Chemical structure: Cc1ccc(NC(=O)c2ccc(CN3CCNCC3)c(C(F)(F)F)c2)cc1NC(=O)c1cccc(-c2cnn(C)c2)c1
Measured quantity: remaining at 0.5 h, 1 µM
Recorded number: 72
--
Chemical structure: Cc1ccc(NC(=O)c2ccc(CN3CCN(C)CC3)c(C(F)(F)F)c2)cc1NC(=O)c1cccc(-c2cnn(C)c2)c1
Measured quantity: remaining at 0.5 h, 1 µM
Recorded number: 7

Could you now consider this next compound?
Asked: Provide only the value of recorded remaining at 0.5 h, 1 µM for "Cc1ccc(NC(=O)c2cccc(C(F)(F)F)c2)cc1NC(=O)c1cnc(N)nc1"
Given back: 65
